- TEST_METHOD_NOTES: Rat liver cells metabolic stability
- Assay type: in vitro ADME
- MEASUREMENT_SETUP: hepatocytes; rat liver cells 0.5 × 10^6 cells/mL; read-out: in vitro t1/2
Reported half-life is given for each of the following compounds.
Reply numerically in min, unit not repeated.

{"columns": ["STRUCTURE_NOTATION", "half-life [min]"],
 "data": [
  ["[2H]C([2H])([2H])n1c(-c2ccc(NC(=O)C(=C)C)cc2F)c(-c2ccc(N=S3(=O)CCCC3)cc2)c2c(N)ncnc21", 37.1]
]}

Next:
stdin: Value lookup for half-life; key = C=C(C)C(=O)Nc1ccc(-c2c(-c3ccc(N=S4(=O)CCCC4)cc3)c3c(N)ncnc3n2C)c(F)c1
stdout: 37.3

----------
- TEST_TARGET: Ba/F3-TEL-FGFR2 (Homo sapiens, UniProt P21802+P41212)
- Sequence (P21802 481-770 limits assumed, one chain of several): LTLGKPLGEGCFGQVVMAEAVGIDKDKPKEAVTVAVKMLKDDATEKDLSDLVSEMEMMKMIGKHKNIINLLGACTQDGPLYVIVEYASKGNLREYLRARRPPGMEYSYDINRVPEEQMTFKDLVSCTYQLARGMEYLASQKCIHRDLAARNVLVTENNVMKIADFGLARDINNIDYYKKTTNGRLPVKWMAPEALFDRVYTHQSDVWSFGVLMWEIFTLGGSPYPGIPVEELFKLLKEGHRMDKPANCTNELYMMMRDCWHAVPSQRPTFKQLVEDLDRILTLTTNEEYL
- TEST_METHOD_NOTES: Cell viability (proliferation inhibition) of Ba/F3 cells, CellTiter Glo
- MEASUREMENT_SETUP: read-out: Ba/F3 cell FGFR2 (IC50 nM), 72 h
MEASURED_QUANTITY: IC50
Remember to follow the number with its unit.

These recorded examples may help you get a feel for the data.
{"columns": ["COMPOUND", "IC50"],
 "data": [
  ["C=C(C)C(=O)Nc1ccc(-c2c(-c3ccc(N=S(=O)(N(C)C)C(F)(F)F)cc3F)c3c(N)ncnc3n2C)cc1 (centres unmarked)", "2.3 nM"],
  ["C=C(C)C(=O)Nc1ccc(F)c(-c2c(-c3ccc(N=S(=O)(N(C)C)C(F)(F)F)cc3)c3c(N)ncnc3n2C)c1 (centres unmarked)", "10.2 nM"]
]}

stdin: Value lookup for IC50; key = [2H]C([2H])([2H])n1c(-c2ccc(NC(=O)C(=C)C)cc2F)c(-c2ccc(N=S3(=O)CCC3)c(F)c2)c2c(N)ncnc21
stdout: 1.9 nM

stdin: Value lookup for IC50; key = [2H]C([2H])([2H])n1c(-c2ccc(NC(=O)C(=C)C)cc2F)c(-c2ccc(N=S(C)(=O)c3ccccc3)c(F)c2)c2c(N)ncnc21 (centres unmarked)
stdout: 29.8 nM

stdin: Value lookup for IC50; key = C=C(C)C(=O)Nc1ccc(-c2c(-c3ccc(N=S4(=O)CCCC4)c(F)c3)c3c(N)ncnc3n2C)c(F)c1
stdout: 0.7 nM

stdin: Value lookup for IC50; key = C=C(C)C(=O)Nc1ccc(-c2c(-c3ncc(N=S4(=O)CCCCC4)cc3F)c3c(N)ncnc3n2C)cc1
stdout: 53.5 nM

stdin: Value lookup for IC50; key = C=C(C)C(=O)Nc1ccc(-c2c(-c3ccc(N=S4(=O)CCCC4)c(F)c3)c3c(N)ncnc3n2C)c(C#N)c1 [Compound 26]
stdout: 4.5 nM

stdin: Value lookup for IC50; key = CC#CC(=O)Nc1ccc(-c2c(-c3ccc(N=S(C)(C)=O)c(F)c3)c3c(N)ncnc3n2C)cc1C(C)(C)O
stdout: 86.7 nM

stdin: Value lookup for IC50; key = C=C(C)C(=O)Nc1ccc(-c2c(-c3ccc(N=S(=O)(CC)CC)cc3F)c3c(N)ncnc3n2C)c(F)c1
stdout: 907 nM

stdin: Value lookup for IC50; key = C=C(C)C(=O)Nc1ccc(-c2c(-c3ccc(N=S4(=O)CCCC4)c(F)c3)c3c(N)ncnc3n2C)cc1
stdout: 11.2 nM

stdin: Value lookup for IC50; key = C=C(C)C(=O)Nc1ccc(-c2c(-c3ccc(N=S(=O)(CC)CC)cc3)c3c(N)ncnc3n2CC(F)(F)F)c(F)c1
stdout: 13.9 nM

stdin: Value lookup for IC50; key = [2H]C([2H])([2H])n1c(-c2cc(C)c(NC(=O)C(=C)C)cc2F)c(-c2ccc(N=S3(=O)CCCC3)c(F)c2)c2c(N)ncnc21
stdout: 23.9 nM

stdin: Value lookup for IC50; key = C=C(C)C(=O)Nc1ccc(-c2c(-c3ccc(N=S4(=O)CCN(C)CC4)c(F)c3)c3c(N)ncnc3n2C)cc1
stdout: 1440 nM

stdin: Value lookup for IC50; key = C=C(C)C(=O)Nc1ccc(-c2c(C3=CCC(=S(=O)(CC)C(C)C)C=C3)c3c(N)ncnc3n2C)cc1 (centres unmarked)
stdout: 9.2 nM

----------
Reported log10(IC50) is given for each of the following compounds.
- TEST_TARGET: Ba/F3-TEL-FGFR2 (Homo sapiens, UniProt P21802+P41212)
- TEST_METHOD_NOTES: Cell viability (proliferation inhibition) of Ba/F3 cells, CellTiter Glo
- MEASUREMENT_SETUP: read-out: Ba/F3 cell FGFR2 (IC50 nM), 72 h
Would you kindly interpret these values as log10 of IC50 expressed in nM?

{"columns": ["COMPOUND", "log10(IC50)"],
 "data": [
  ["C=C(C)C(=O)Nc1ccc(-c2c(-c3ccc(N=S(=O)(CC)CC)cc3)c3c(N)ncnc3n2C)c(C(F)F)c1", 1.05],
  ["C=CC(=O)Nc1ccc(-c2c(-c3ccc(N=S4(=O)CCCCC4)c(F)c3)c3c(N)ncnc3n2C)cc1", -0.22],
  ["C=C(C)C(=O)Nc1ccc(-c2c(-c3ccc(N=S4(=O)CC(OC)(OC)C4)c(F)c3)c3c(N)ncnc3n2C)cc1", 2.03],
  ["C=C(C)C(=O)Nc1ccc(F)c(-c2c(-c3ccc(N=S4(=O)CCCCC4)c(F)c3)c3c(N)ncnc3n2C)c1", 2.44],
  ["C=C(C)C(=O)Nc1ccc(-c2c(-c3ccc(N=S(=O)(NCC)C(F)(F)F)c(F)c3)c3c(N)ncnc3n2C)cc1 (centres unmarked)", 0.40],
  ["C=C(C)C(=O)Nc1ccc(-c2c(-c3ccc(N=S4(=O)CCCCC4)cc3F)c3c(N)ncnc3n2C)cc1", 1.15],
  ["C=C(C)C(=O)N(C)c1ccc(-c2c(-c3ccc(N=S4(=O)CCCCC4)c(F)c3)c3c(N)ncnc3n2C)cc1", 2.21],
  ["CN(C)C/C=C/C(=O)Nc1ccc(-c2c(-c3ccc(N=S4(=O)CCCCC4)c(F)c3)c3c(N)ncnc3n2C)cc1", 1.70],
  ["C=C(C)C(=O)Nc1ccc(-c2c(-c3ccc(N=S(=O)(CC)CC)cc3)c3c(N)ncnc3n2C)c(F)c1", 0.48],
  ["C=C(C)C(=O)Nc1ccc(-c2c(-c3ccc(N=S4(=O)CCCC4)cc3)c3c(N)ncnc3n2C)c(F)c1", 0.32]
]}

stdin: Value lookup for log10(IC50); key = C=C(C)C(=O)Nc1ccc(-c2c(-c3ccc(N=S(C)(=O)C4CCC4)cc3)c3c(N)ncnc3n2C)c(F)c1 (centres unmarked)
stdout: 0.88

stdin: Value lookup for log10(IC50); key = C=C(C)C(=O)Nc1ccc(-c2c(-c3ccc(N=S4(=O)CCCCC4)c(F)c3)c3c(N)ncnc3n2C)cc1
stdout: 1.06

stdin: Value lookup for log10(IC50); key = C=C(C)C(=O)Nc1ccc(-c2c(-c3ccc(N=S(=O)(CC)CC)cc3)c3c(N)ncnc3n2CCOC)c(F)c1
stdout: 1.83

stdin: Value lookup for log10(IC50); key = C=C(C)C(=O)Nc1ccc(-c2c(-c3ccc(N=S4(=O)CCC4)c(F)c3)c3c(N)ncnc3n2C)c(Cl)c1
stdout: -0.30

----------
- TEST_TARGET: Ba/F3-TEL-FGFR2 (Homo sapiens, UniProt P21802+P41212)
- TEST_METHOD_NOTES: Cell viability (proliferation inhibition) of Ba/F3 cells, CellTiter Glo
- MEASUREMENT_SETUP: read-out: Ba/F3 cell FGFR2 (IC50 nM), 72 h
MEASURED_QUANTITY: log10(IC50) (log10 of the value in nM)
Would you kindly interpret these values as log10 of IC50 expressed in nM?

These recorded examples may help you get a feel for the data.
{"columns": ["STRUCTURE_NOTATION", "MEASURED_QUANTITY", "ENDPOINT_RESULT"],
 "data": [
  ["C=C(C)C(=O)Nc1ccc(-c2c(-c3ccc(N=S4(=O)CCCCC4)c(F)c3)c3c(N)ncnc3n2C)c(F)c1", "log10(IC50)", 0.38],
  ["C=C(C)C(=O)Nc1ccc(-c2c(-c3ccc(N=S4(=O)CCC4)c(F)c3)c3c(N)ncnc3n2C)cc1", "log10(IC50)", 1.10],
  ["C=C(C)C(=O)Nc1ccc(-c2c(-c3ccc(N=S4(=O)CCCC4)cc3F)c3c(N)ncnc3n2C)c(F)c1", "log10(IC50)", 2.18],
  ["C=C(CN(C)C)C(=O)Nc1ccc(-c2c(-c3ccc(N=S4(=O)CCCC4)c(F)c3)c3c(N)ncnc3n2C)cc1", "log10(IC50)", -0.10],
  ["C=C(C)C(=O)Nc1ccc(-c2c(-c3ccc(N=S(C)(C)=O)cc3)c3c(N)ncnc3n2C)cc1", "log10(IC50)", 1.92]
]}

stdin: Value lookup for log10(IC50); key = CC#CC(=O)Nc1ccc(-c2c(-c3ccc(N=S4(=O)CCCC4)cc3)c3c(N)ncnc3n2C)cc1
stdout: 1.12

stdin: Value lookup for log10(IC50); key = C=C(C)C(=O)Nc1ccc(-c2c(-c3ccc(N=S4(=O)CCCC4)c(OC)c3)c3c(N)ncnc3n2C)c(F)c1
stdout: 1.66
